EXPERIMENTAL DETAILS: yeast display, Sf9 membrane polyspecificity reagent, FACS + sequencing; frameworks hold sequencing errors
MEASUREMENT NAME: polyreactivity (PSR sort gate)

QVQLVESGGGLVQAGGSHRLSCAASGRIFTSNTMGWYRQAPGKERELVAAITSSGGSMYYADSVKGRFTISRDNAKNTVYLQMNSLIPEDTAVYYCAADTIGYHYWYDYWGQGTQVTVSS | low polyreactivity
QVQLVESGGGLVKAGGILRLSCAASGSIFGRYVMGWYRPAPGKEREVVAAINRSGGRTYYADSVKGRFSISRDNAKYTVYLQMNSLKPEDTAVYYCATYTGSSASKEVPYDYWGQGTQVTVSS | high polyreactivity
QVQLVESGGGLVQAGGSLRLRCAASGRIFVPYVMGWYRQAPGKERELVASISDSDTSTYYADSVKGRFTISRDNAKNTVYLQMNSLKPEDTAVYYCNVDYWGQGTQVTVSS | low polyreactivity
QVQLVESGGGLVQAGGSLRLSCAASGFTFSIYAMGWYRQAPGKERELVAAISYRGTSTYYADSVKGRFTISRDNAKNTVYLQMNSLKPEDTAVYYCNKVSSPFVYTVYYWGQGTQVTVSS | high polyreactivity

Proceeding to the next sequence to report its polyreactivity (PSR sort gate).
Qu. Query: polyreactivity (PSR sort gate); subject: "QVQLVESGGGLVQAGGSHRLSCAASGLIFPYNAMGWYRQAPGKERELVAAIDSGVTTYYADSVKGRFTISRDNAKNTVYLQMNSLKPEDTAVYYCAADGLPGPEGDSWGQGTQVTVSS"
Ans. low polyreactivity
